# subject.of.test: muscarinic M1 receptor (Homo sapiens)
# Construct: expressed in transfected cells
# Sequence (P11229 1-460): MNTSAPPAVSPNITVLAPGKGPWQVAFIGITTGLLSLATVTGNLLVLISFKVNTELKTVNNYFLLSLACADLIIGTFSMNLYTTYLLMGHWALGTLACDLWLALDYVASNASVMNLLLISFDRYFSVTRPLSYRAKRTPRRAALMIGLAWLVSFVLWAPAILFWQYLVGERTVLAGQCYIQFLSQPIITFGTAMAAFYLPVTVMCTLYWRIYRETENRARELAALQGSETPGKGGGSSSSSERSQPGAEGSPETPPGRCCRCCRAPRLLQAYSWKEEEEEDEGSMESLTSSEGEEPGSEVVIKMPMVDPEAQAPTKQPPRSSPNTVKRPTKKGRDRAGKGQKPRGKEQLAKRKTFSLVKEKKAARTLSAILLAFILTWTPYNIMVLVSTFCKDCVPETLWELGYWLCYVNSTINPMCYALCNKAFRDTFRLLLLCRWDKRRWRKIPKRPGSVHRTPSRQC
# protocol.details: R-SAT functional screen, M1
# Assay type: cell-based
# condition.context: R-SAT; read-out: M1 eff (efficacy)
attribute.measured: Emax (%)
Answers are plain numbers, in %.

Sample records with Emax:
CNCCNC1=Nc2cc(Cl)ccc2Nc2ccccc21 : 5
O=S(=O)(Oc1ccc2c(c1)C(N1CCNCC1)=Nc1cc(Cl)ccc1N2)C(F)(F)F : -2
CCN(CC)CCNC1=Nc2cc(Cl)ccc2Nc2ccccc21 : 6

Would you mind giving Emax for every compound in the list below?
1. CN1c2ccc(Cl)cc2N=C(N2CCNCC2)c2ccccc21
2. CC1CC(N2CCNCC2)=Nc2cc(Br)ccc2N1 (stereo not drawn)
3. Clc1ccc2c(c1)Nc1ccccc1C(N1CCNCC1)=N2

1. 65
2. 16
3. 48
